Numbers sourced from PubChem BioAssay (NCI).

Test system: SK-MEL-5 melanoma
Assay: NCI-60 one-dose screen, 48 h
Conditions: 10 µM unless noted
The panel holds about 83,000 compounds, 20% with a hit somewhere; the sample as a whole holds those more often. Calls of active or inactive are those of the source. How the source made its calls: active means growth percent below 10; inactive means the rest.
Classes used: active, inactive

- molecule: "Cc1ccn2c3c(c(C(=O)O)c2c1)C(=O)c1ccccc1C3=O"
  target_entity: "SK-MEL-5 melanoma"
  class_assignment: "active"
- molecule: "COc1ccc(Nc2nc(SCC(C)C)nc(-c3ccc(F)cc3)c2C#N)cc1"
  target_entity: "SK-MEL-5 melanoma"
  class_assignment: "inactive"
- molecule: "OCCNc1nc(NCCO)nc(Nc2ccc(C3=NN(c4cc(Cl)cc(Cl)c4)C(c4ccccc4)C3)cc2)n1 (centres undefined)"
  target_entity: "SK-MEL-5 melanoma"
  class_assignment: "inactive"
- molecule: "Cc1c(Br)cccc1NC(=O)c1sc2nc3c(cc2c1N)CN(Cc1ccccc1)CC3"
  target_entity: "SK-MEL-5 melanoma"
  class_assignment: "inactive"
- molecule: "COc1cccc(NC(=O)Nc2ccc(Oc3ncnc4[nH]c(C)c(C)c34)cc2)c1"
  target_entity: "SK-MEL-5 melanoma"
  class_assignment: "inactive"
- molecule: "CCCCN(CCCC)CC(CN(CC)CC)OC(=O)Nc1ccccc1 (centres undefined)"
  target_entity: "SK-MEL-5 melanoma"
  class_assignment: "inactive"
- molecule: "C=C(C)[C@@H]1CC[C@]2(C(N)=O)CC[C@]3(C)[C@H](CC[C@@H]4[C@@]5(C)CCCNC(C)(C)[C@@H]5CC[C@]43C)[C@@H]12"
  target_entity: "SK-MEL-5 melanoma"
  class_assignment: "inactive"
- molecule: "N#Cc1ccc(C2C3=C(CCCC3=O)OC3=C2C(=O)c2ccccc2C3=O)cc1 (centres undefined)"
  target_entity: "SK-MEL-5 melanoma"
  class_assignment: "inactive"
- molecule: "COC(=O)c1cc2c3c(cc(O)c2[nH]1)N(C(=O)C1Cc2cc(OC)c(OC)c(OC)c2N1)CC3CCl (centres undefined)"
  target_entity: "SK-MEL-5 melanoma"
  class_assignment: "active"

----------
Tested on: K-562 leukemia
Assay: NCI-60 one-dose screen, 48 h (100 = growth as untreated, 0 = no growth, -100 = all killed)
Settings: 10 µM unless noted
This is part of a sample that, as a whole, favours compounds with a hit. Of some 83,000 tested, about 20% had one in any assay.
experimental_endpoint: growth (%)

- molecule: "C[C@H](Oc1cc(-c2cnn(C3CCNCC3)c2)cnc1N)c1c(Cl)ccc(F)c1Cl"
  readout_value: 5.27
- molecule: "Nc1c(C(=O)Nc2cccc3ccccc23)sc2nc3c(cc12)CCCCCC3"
  readout_value: 9.1
- molecule: "Cc1c(Cl)cccc1NC(=O)c1sc2nc3c(cc2c1N)CCCCC3"
  readout_value: 8.36
- molecule: "CC1CCCN(CCCCCOc2ccc3oc4ccc(Cl)cc4c(=O)c3c2)C1 (stereo not given)"
  readout_value: 16.8
- molecule: "O=C(O)c1cc(N=Nc2ccc(-c3ccc(N=Nc4c(S(=O)(=O)O)cc5ccc(Nc6ccccc6)cc5c4O)cc3)cc2)ccc1O"
  readout_value: 91.3
- molecule: "Sc1cccc2cccnc12"
  readout_value: 9
- molecule: "Cc1cc(C)cc(Nc2nccc(-c3c(-c4ccc(F)cc4)ncn3C3CCNCC3)n2)c1"
  readout_value: -33.3
- molecule: "CCOCc1nc2ccccc2c(=O)[nH]1"
  readout_value: 119
- molecule: "O=c1c2ccccc2oc2ccc(OCCCCCCN3CCCCCC3)cc12"
  readout_value: 2.32
- molecule: "Cc1ccc(CS/C(=C\\c2ccc([N+](=O)[O-])cc2)C(=O)c2ccc(F)cc2)cc1"
  readout_value: -0.821

----------
Tested on: SK-MEL-28 melanoma
Assay: NCI-60 one-dose screen, 48 h
Details: 10 µM unless noted
The panel holds about 83,000 compounds, 20% with a hit somewhere; the sample as a whole holds those more often. Active and inactive are the calls of the source. The calls were made as follows: active = growth percent below 10; inactive = the rest.
Classes used: yes = active, no = inactive

- chemical_smiles: "COc1cc(C(=O)Nc2cc(OC)c3ccn(C)c3c2)cc2c1C[C@]1(C)CC[C@@H](O)C(C)(C)[C@H]1O2"
  class_assignment: "no"
- chemical_smiles: "[2H]c1nc(Nc2ncc3cc(C(=O)N(C)C)n(C4CCCC4)c3n2)c([2H])c([2H])c1N1C([2H])([2H])C([2H])([2H])NC([2H])([2H])C1([2H])[2H]"
  class_assignment: "no"
- chemical_smiles: "C=C1C(=O)O[C@H]2[C@H]1CC/C(COC(=O)c1c[nH]c3ccccc13)=C\\CC[C@@]1(C)O[C@@H]21"
  class_assignment: "yes"
- chemical_smiles: "CCOC(=O)c1cnn(-c2nc(-c3ccc(F)cc3)c(C#N)c(N3CCOCC3)n2)c1N"
  class_assignment: "no"

----------
Test system: U251 CNS
Assay: NCI-60 one-dose screen, 48 h
Conditions: 10 µM unless noted
This is part of a sample that, as a whole, favours compounds with a hit. Of some 83,000 tested, about 20% had one in any assay. The source made the active and inactive calls. Rule for the calls: active = growth percent below 10; inactive = the rest.
Classes used: 1 for active, 0 for inactive

- compound: "CC(=O)c1ccc(NC(=O)CSc2nnc(-c3cc(-c4ccc(C)cc4)nc4ccccc34)o2)cc1"
  class_assignment: 1
- compound: "O=C(/C(=C/c1ccc([N+](=O)[O-])cc1)SCc1ccccc1)c1ccc(Cl)cc1"
  class_assignment: 0
- compound: "CC[C@H](Nc1ncnc2nc[nH]c12)c1nc2cccc(CC(=O)c3ccc(C(=O)NO)cc3)c2c(=O)n1-c1ccccc1"
  class_assignment: 0
- compound: "Cc1cc(C)n(-c2nc(-c3cccs3)c(C#N)c(=O)[nH]2)n1"
  class_assignment: 0
- compound: "O=C(NCc1ccccc1)c1ccc2c(c1)NC(=O)[C@@H]1CCCN21"
  class_assignment: 0
- compound: "CN(C)C1=NCCN1"
  class_assignment: 0
- compound: "O=C1NCc2ccc3c(-c4cccc(Cl)c4)c[nH]c3c21"
  class_assignment: 0
- compound: "COc1ccccc1-c1ccc2nc(NC(=O)Nc3cc(C(F)(F)F)cc(C(F)(F)F)c3)sc2c1"
  class_assignment: 0
- compound: "CCOC(=O)c1c(-c2ccc(O)cc2)c(C#N)c2c(C#N)c(N)nn2c1N"
  class_assignment: 0
- compound: "O=C(/C(=C/c1ccc([N+](=O)[O-])cc1)SCc1ccc(Cl)cc1)c1ccc(F)cc1"
  class_assignment: 1
- compound: "COC1=CC=CC2(OC)C3(O)CCCc4cccc(c43)N3C(=O)COC132 (configuration not stated)"
  class_assignment: 0
- compound: "O=C(CCc1nnc2sc(OCc3ccccc3)nn12)c1nc2ccc([N+](=O)[O-])cc2[nH]1"
  class_assignment: 0
- compound: "CC[C@]12C=CCN3CC[C@@]4(c5cc(NC(=O)CCC(=O)O[C@H]6CC[C@H]7[C@@H]8CC[C@H]9CC(=O)CC[C@]9(C)[C@H]8CC[C@]67C)c(OC)cc5N(C)[C@H]4[C@@](O)(C(=O)OC)[C@@H]1OC(C)=O)[C@@H]32"
  class_assignment: 0
- compound: "COc1cc(-c2csc(NC(=O)Nc3ccc(C(F)(F)F)cc3)n2)cc(OC)c1OC"
  class_assignment: 1
- compound: "COc1cc(C2=NN(C(C)=O)C(c3cccc(Nc4ccnc5cc(C(F)(F)F)ccc45)c3)C2)cc(OC)c1OC (configuration not stated)"
  class_assignment: 0
- compound: "Cc1nc2sc(C(=O)Nc3ccccc3Cl)c(N)c2cc1C(C)O (configuration not stated)"
  class_assignment: 0
- compound: "CCC1=C[C@H]2CN(CCc3c([nH]c4ccccc34)[C@@](C(=O)OC)(c3cc4c(cc3OC)N(C)[C@H]3[C@@](O)(C(=O)OC)[C@H](OC(C)=O)[C@]5(CC)[C@@H]6C[C@@H]6CN6CC[C@]43[C@@H]65)C2)C1"
  class_assignment: 0

----------
Test system: SK-MEL-2 melanoma
Assay: NCI-60 one-dose screen, 48 h (100 = growth as untreated, 0 = no growth, -100 = all killed)
Conditions: 10 µM unless noted
The panel holds about 83,000 compounds, 20% with a hit somewhere; the sample as a whole holds those more often.
experimental_endpoint: growth (%)

- compound: "NS(=O)(=O)c1ccc(-n2ncc(NC(=O)Nc3ccc(S(=O)(=O)Nc4nccs4)cc3)c2-c2ccccc2)cc1"
  readout_value: 93.2
- compound: "COc1cc(C)ccc1Oc1nc(Nc2ccc(N3CCOCC3)cc2)ncc1N=Cc1cc(C(F)(F)F)cc(C(F)(F)F)c1"
  readout_value: 70.2
- compound: "CC(C)CSc1nc(Nc2ccccc2)c(C#N)c(-c2ccc(F)cc2)n1"
  readout_value: 78.8
- compound: "CCCCn1c(=O)c(/C=C/C(=O)/C=C/c2cc3ccccc3n(CCCC)c2=O)cc2ccccc21"
  readout_value: 79.5
- compound: "C#C[C@@]1(O)[C@@H](CO)O[C@@H](n2cc(-c3ccco3)c3c(N)ncnc32)[C@@H]1O"
  readout_value: 84.3
- compound: "CCOc1ccc(C2N(c3cc(OC)c(OC)c(OC)c3)C(=O)C2(F)F)cc1 (stereo not given)"
  readout_value: 91.8
- compound: "CC(=O)Oc1ccc(O)cc1"
  readout_value: 87.2
- compound: "Nc1c(C(=O)Nc2ccccn2)sc2nc3c(cc12)CCCC3"
  readout_value: 35.1
- compound: "COc1ccc(/C=C(/C(=O)N2CCN(Cc3ccccc3)CC2)c2cc(OC)c(OC)c(OC)c2)cc1O"
  readout_value: 73.6
- compound: "CC(=O)c1cnc(-c2ccccc2)nc1CBr"
  readout_value: 98.3
